Test system: OVCAR-4 ovarian
Experiment: NCI tumour cell line growth inhibition, 48 h; in the data active means GI50 below about 0.43 µM; inactive means the rest
Outcome codes: active, inactive

[[record]]
compound = "CC(=O)c1c[nH]c2ccc(-c3ccnc(Nc4ccc(NC(=O)c5cccc(F)c5)c(CN5CCOCC5)c4)n3)cc12"
tgt = "OVCAR-4 ovarian"
category = "active"

[[record]]
compound = "CC([C@H]1CCC2C3CCC4C(=O)C(NC=O)=CC[C@]4(C)C3CC[C@@]21C)N(C)C (some centres undefined)"
tgt = "OVCAR-4 ovarian"
category = "inactive"

[[record]]
compound = "O=C1/C(=C/c2ccc(F)cc2)CN(Cc2cn(CCNc3ccnc4cc(Cl)ccc34)nn2)C/C1=C\\c1ccc(F)cc1"
tgt = "OVCAR-4 ovarian"
category = "inactive"

[[record]]
compound = "Cc1c(Br)cccc1NC(=O)c1sc2nc3c(cc2c1N)CN(Cc1ccccc1)CC3"
tgt = "OVCAR-4 ovarian"
category = "inactive"

[[record]]
compound = "COc1cc(OC)cc(-c2n[nH]nc2-c2ccc3c(c2)OCO3)c1"
tgt = "OVCAR-4 ovarian"
category = "inactive"

[[record]]
compound = "COc1cc(C2C3=C(COC3=O)N(CCO)c3cc4c(cc32)OCCO4)cc(OC)c1O (centres undefined)"
tgt = "OVCAR-4 ovarian"
category = "inactive"

[[record]]
compound = "COC(=O)c1ccc2c(c1)CCN2C(=O)c1cc2c(cc1Br)OCO2"
tgt = "OVCAR-4 ovarian"
category = "inactive"

[[record]]
compound = "CN1CCN(c2nc(NCCNc3ccnc4cc(Cl)ccc34)c3ccccc3n2)CC1"
tgt = "OVCAR-4 ovarian"
category = "inactive"

[[record]]
compound = "Cc1cc(C)c2nc(Nc3nc(C)c(C)c(=O)[nH]3)nc(C)c2c1"
tgt = "OVCAR-4 ovarian"
category = "inactive"


====

Tested on: LOX IMVI melanoma
Experiment: NCI tumour cell line growth inhibition, 48 h
List of TGI values.
measuredMetric: TGI

[[record]]
compound = "Nc1nc(Cl)cc2c1ncn2C1OC(CO)C(O)C1O (configuration not stated)"
measuredmetric = "TGI"
readoutvalue = "> 100 µM"

[[record]]
compound = "O=C1c2cc(Br)ccc2-c2c1c1ccccc1c(=O)n2CCCCl"
measuredmetric = "TGI"
readoutvalue = "61.3 µM"

[[record]]
compound = "COC(=O)c1ccc2c(c1)[n+](=O)c(C(C)=O)c(C(F)(F)F)n2[O-]"
measuredmetric = "TGI"
readoutvalue = "3.2 µM"

[[record]]
compound = "CCOC(=O)Cn1c(=O)c2cc(C)cc3c(Cl)nc4c(OC)c(OC)cc1c4c32"
measuredmetric = "TGI"
readoutvalue = "> 100 µM"

[[record]]
compound = "c1cc(C2O[C@H]3CCCN3[C@@H]2c2ccncc2)ccn1 (some centres not stated)"
measuredmetric = "TGI"
readoutvalue = "> 100 µM"

[[record]]
compound = "C[N+](C)(C)CC(=O)NC(=O)N/N=C\\C(CC#N)CN(Cc1ccccc1)Cc1ccccc1 (configuration not stated)"
measuredmetric = "TGI"
readoutvalue = "> 100 µM"

[[record]]
compound = "Nc1c(Cl)ncnc1NCC1(CO)CCC1"
measuredmetric = "TGI"
readoutvalue = "> 100 µM"


====

Some compounds, each annotated with its measured TGI.
System: UACC-257 melanoma
Assay: NCI tumour cell line growth inhibition, 48 h
measuredMetric: TGI (µM)

[[record]]
compound = "COc1cc(Oc2cnc3cc(N)cc(N)c3n2)cc(OC)c1OC"
measuredmetric = "TGI"
qual = ">"
readoutvalue = 100

[[record]]
compound = "COc1ccc(-n2cc(-c3ccc(Cl)cc3)[nH]c2=S)cc1Cl"
measuredmetric = "TGI"
qual = ">"
readoutvalue = 100

[[record]]
compound = "CN(C)c1ccc(C(=C2C=CC(=[N+](C)C)C=C2)c2c(O)c(S(=O)(=O)[O-])cc3cc(S(=O)(=O)O)ccc23)cc1"
measuredmetric = "TGI"
qual = ">"
readoutvalue = 100

[[record]]
compound = "C=CCCCN1C(=O)C2C3c4ccccc4C(C=O)(c4ccccc43)C2C1=O (stereo not given)"
measuredmetric = "TGI"
qual = "="
readoutvalue = 28.9

[[record]]
compound = "O=C1/C(=C/c2ccc(F)cc2)CN(Cc2cn(CCNc3ccnc4cc(Cl)ccc34)nn2)C/C1=C\\c1ccc(F)cc1"
measuredmetric = "TGI"
qual = "="
readoutvalue = 3.35


====

Test system: MDA-MB-435
Assay: NCI tumour cell line growth inhibition, 48 h
measuredMetric: TGI (µM)

[[record]]
compound = "COc1ccc(/C(C#N)=C/c2nc3c(N4CCOCC4)nc(Cl)nc3n2C)cc1OC"
readoutunit = "µM"
qual = "<"
readoutvalue = 0.01

[[record]]
compound = "Nc1ncnc2c1ncn2C1OC(CO)C(O)C1O (stereo not given)"
readoutunit = "µM"
qual = ">"
readoutvalue = 100

[[record]]
compound = "COc1c2c(cc3oc(=O)ccc13)OC(C)(C)C=C2"
readoutunit = "µM"
qual = "="
readoutvalue = 68.7

[[record]]
compound = "CSc1nc(NC2CC2)c2c(n1)Sc1nc3ccccc3n1N=C2"
readoutunit = "µM"
qual = ">"
readoutvalue = 100

[[record]]
compound = "O=C1/C(=C/c2ccc(F)cc2)CN(Cc2cn(CCNc3ccnc4cc(Cl)ccc34)nn2)C/C1=C\\c1ccc(F)cc1"
readoutunit = "µM"
qual = "="
readoutvalue = 2.73


====

Test system: NCI-H522 lung
Assay: NCI tumour cell line growth inhibition, 48 h
measuredMetric: TGI (µM)

[[record]]
compound = "CC(=O)OC1CC[C@@]2(C)C(CC(OC3OC(CO)C(O)C(O)C3O)[C@]3(C)C2CCC24CC23CC[C@H]4C(C)CC(O)[C@@H](O)C(C)(C)O)C1(C)C (some centres not stated)"
qual = "="
readoutvalue = 16.2

[[record]]
compound = "Nc1c(Cl)ncnc1NCC1(CO)CCC1"
qual = ">"
readoutvalue = 100

[[record]]
compound = "CC(C)OCC(O)COc1cc(=O)oc2ccccc12 (configuration not stated)"
qual = ">"
readoutvalue = 100

[[record]]
compound = "CCCc1c(OC)c(O)c2c(=O)cc(OC)c3c4c(OC)cc(=O)c5c(O)c(OC)c(CCC)c(c1c23)c54"
qual = "="
readoutvalue = 9.53

[[record]]
compound = "CCCCc1ccc(Nc2nc(N)c3[nH]cnc3n2)cc1"
qual = "="
readoutvalue = 28.8

[[record]]
compound = "COC(=O)c1ccc2n[se]nc2c1"
qual = ">"
readoutvalue = 100

[[record]]
compound = "CC(=O)Nc1ccc(S(=O)(=O)/N=c2/sc(S(N)(=O)=O)nn2C)cc1"
qual = ">"
readoutvalue = 100


====

Tested on: SN12C renal
Experiment: NCI tumour cell line growth inhibition, 48 h
measuredMetric: TGI (µM)

[[record]]
molecule = "Cc1cc(C)c2nc(Nc3nc(C)c(C)c(=O)[nH]3)nc(C)c2c1"
tgt = "SN12C renal"
measuredmetric = "TGI"
qual = "="
readoutvalue = 12

[[record]]
molecule = "COc1ccc(NC(=O)c2cc(NC(=O)/C=C/c3ccccc3)c(OC)c(OC)c2)cc1"
tgt = "SN12C renal"
measuredmetric = "TGI"
qual = ">"
readoutvalue = 100

[[record]]
molecule = "COc1cc(C=C2C(=O)OC(C)(C)OC2=O)cc(OC)c1OC"
tgt = "SN12C renal"
measuredmetric = "TGI"
qual = ">"
readoutvalue = 100

[[record]]
molecule = "COc1cc2c(cc1OC)[C@@H]1[C@H](C2=O)c2ccc([N+](=O)[O-])cc2C(=O)N1CCCBr"
tgt = "SN12C renal"
measuredmetric = "TGI"
qual = "="
readoutvalue = 0.934

[[record]]
molecule = "COC(=O)C1=C(O)C(C(=O)OC)[C@@]2(O)[C@@H](C(=O)OC)C(c3ccc(OC(=O)C(Cc4ccccc4)NC(C)=O)cc3)C[C@@H]1[C@@H]2C(=O)OC (stereo not given in full)"
tgt = "SN12C renal"
measuredmetric = "TGI"
qual = "="
readoutvalue = 62.1

[[record]]
molecule = "OCCOCn1nc(-c2ccccc2)nc1-c1cnccn1"
tgt = "SN12C renal"
measuredmetric = "TGI"
qual = ">"
readoutvalue = 100

[[record]]
molecule = "c1ccc2c3c(c(N4CCNCC4)nc2c1)CCCC3"
tgt = "SN12C renal"
measuredmetric = "TGI"
qual = "="
readoutvalue = 31.1

[[record]]
molecule = "O=C(OCc1ccccc1[N+](=O)[O-])N1c2ccccc2[C@@]23O[C@]24CCC[C@H]3C#C/C=C\\C#C[C@H]14"
tgt = "SN12C renal"
measuredmetric = "TGI"
qual = "="
readoutvalue = 68.2

[[record]]
molecule = "O=C1NC(N2CCOCC2)=N/C1=C\\c1ccccc1"
tgt = "SN12C renal"
measuredmetric = "TGI"
qual = ">"
readoutvalue = 100

[[record]]
molecule = "O=C(c1ccc(Cl)cc1)N(C(=S)N1CCN(c2ccccc2)CC1)C1CCCCC1"
tgt = "SN12C renal"
measuredmetric = "TGI"
qual = ">"
readoutvalue = 100


Numbers sourced from PubChem BioAssay (NCI).
